These entries and their values trace back to patent US20250368745A1.

System: T1, human IL-18BP (human, UniProt O95998 31-194)
T1 construct: UniProt printed as 095998; also called hIL-18BP
T1 sequence: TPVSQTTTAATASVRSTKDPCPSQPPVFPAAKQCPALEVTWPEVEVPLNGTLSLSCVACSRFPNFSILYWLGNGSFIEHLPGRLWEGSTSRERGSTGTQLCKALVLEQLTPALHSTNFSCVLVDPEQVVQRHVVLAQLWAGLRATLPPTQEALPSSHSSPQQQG
Protocol Details: BLI, apparent KD

>  <Binder>
SA301a HC-Y59E (antibody, name in Kabat numbering, V domains shown, IgG1 kappa) VH: QVQLQESGPGLVKPSQTLSLTCTVSGYSITSDYNSHWIRQPPGKGLEWIGYIHYSGSTNENPSLKSRVTISRDTSKNQFSLKLSSVTAADTAVYYCARNYGSIYVNYFDYWGQGTLVTVSS VL: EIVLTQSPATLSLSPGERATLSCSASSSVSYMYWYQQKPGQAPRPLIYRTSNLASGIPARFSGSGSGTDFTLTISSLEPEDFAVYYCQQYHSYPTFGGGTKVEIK

>  <Kd [nM]>
0.18

$$$$
>  <Binder>
SA301a HC-G55R (antibody, name in Kabat numbering, V domains shown, IgG1 kappa) VH: QVQLQESGPGLVKPSQTLSLTCTVSGYSITSDYNSHWIRQPPGKGLEWIGYIHYSRSTNYNPSLKSRVTISRDTSKNQFSLKLSSVTAADTAVYYCARNYGSIYVNYFDYWGQGTLVTVSS VL: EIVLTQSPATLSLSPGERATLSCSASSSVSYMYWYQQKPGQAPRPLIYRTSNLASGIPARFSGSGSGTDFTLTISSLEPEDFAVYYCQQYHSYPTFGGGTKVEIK

>  <Kd [nM]>
0.75

$$$$
>  <Binder>
SA301a HC-Y59F (antibody, name in Kabat numbering, V domains shown, IgG1 kappa) VH: QVQLQESGPGLVKPSQTLSLTCTVSGYSITSDYNSHWIRQPPGKGLEWIGYIHYSGSTNFNPSLKSRVTISRDTSKNQFSLKLSSVTAADTAVYYCARNYGSIYVNYFDYWGQGTLVTVSS VL: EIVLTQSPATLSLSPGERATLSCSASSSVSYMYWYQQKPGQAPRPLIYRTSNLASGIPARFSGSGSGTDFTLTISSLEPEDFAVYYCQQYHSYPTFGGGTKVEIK

>  <Kd [nM]>
0.87

$$$$
>  <Binder>
SA301a HC-Y59S (antibody, name in Kabat numbering, V domains shown, IgG1 kappa) VH: QVQLQESGPGLVKPSQTLSLTCTVSGYSITSDYNSHWIRQPPGKGLEWIGYIHYSGSTNSNPSLKSRVTISRDTSKNQFSLKLSSVTAADTAVYYCARNYGSIYVNYFDYWGQGTLVTVSS VL: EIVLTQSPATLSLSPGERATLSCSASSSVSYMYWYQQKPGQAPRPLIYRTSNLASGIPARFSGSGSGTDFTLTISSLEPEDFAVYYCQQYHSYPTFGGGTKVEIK

>  <Kd [nM]>
1.57

$$$$
>  <Binder>
SA301a HC-G55K (antibody, name in Kabat numbering, V domains shown, IgG1 kappa) VH: QVQLQESGPGLVKPSQTLSLTCTVSGYSITSDYNSHWIRQPPGKGLEWIGYIHYSKSTNYNPSLKSRVTISRDTSKNQFSLKLSSVTAADTAVYYCARNYGSIYVNYFDYWGQGTLVTVSS VL: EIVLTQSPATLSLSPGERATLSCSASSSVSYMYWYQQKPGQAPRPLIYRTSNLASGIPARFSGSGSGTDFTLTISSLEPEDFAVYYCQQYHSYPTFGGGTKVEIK

>  <Kd [nM]>
1.04

$$$$
>  <Binder>
SA301a HC-S56F (antibody, name in Kabat numbering, V domains shown, IgG1 kappa) VH: QVQLQESGPGLVKPSQTLSLTCTVSGYSITSDYNSHWIRQPPGKGLEWIGYIHYSGFTNYNPSLKSRVTISRDTSKNQFSLKLSSVTAADTAVYYCARNYGSIYVNYFDYWGQGTLVTVSS VL: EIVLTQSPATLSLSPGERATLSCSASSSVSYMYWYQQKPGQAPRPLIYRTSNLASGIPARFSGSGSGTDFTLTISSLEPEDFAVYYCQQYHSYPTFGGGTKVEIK

>  <Kd [nM]>
0.7

$$$$
>  <Binder>
SA301a HC-S56E (antibody, name in Kabat numbering, V domains shown, IgG1 kappa) VH: QVQLQESGPGLVKPSQTLSLTCTVSGYSITSDYNSHWIRQPPGKGLEWIGYIHYSGETNYNPSLKSRVTISRDTSKNQFSLKLSSVTAADTAVYYCARNYGSIYVNYFDYWGQGTLVTVSS VL: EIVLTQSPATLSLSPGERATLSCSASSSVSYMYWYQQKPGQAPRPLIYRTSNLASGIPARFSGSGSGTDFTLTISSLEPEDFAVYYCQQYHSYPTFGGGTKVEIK

>  <Kd [nM]>
0.48

$$$$
>  <Binder>
SA301a HC-N58A (antibody, name in Kabat numbering, V domains shown, IgG1 kappa) VH: QVQLQESGPGLVKPSQTLSLTCTVSGYSITSDYNSHWIRQPPGKGLEWIGYIHYSGSTAYNPSLKSRVTISRDTSKNQFSLKLSSVTAADTAVYYCARNYGSIYVNYFDYWGQGTLVTVSS VL: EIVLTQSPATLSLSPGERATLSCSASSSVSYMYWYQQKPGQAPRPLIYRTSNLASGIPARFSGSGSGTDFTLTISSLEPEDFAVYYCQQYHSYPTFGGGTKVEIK

>  <Kd [nM]>
0.64

$$$$
>  <Binder>
SA301a HC-S54F (antibody, name in Kabat numbering, V domains shown, IgG1 kappa) VH: QVQLQESGPGLVKPSQTLSLTCTVSGYSITSDYNSHWIRQPPGKGLEWIGYIHYFGSTNYNPSLKSRVTISRDTSKNQFSLKLSSVTAADTAVYYCARNYGSIYVNYFDYWGQGTLVTVSS VL: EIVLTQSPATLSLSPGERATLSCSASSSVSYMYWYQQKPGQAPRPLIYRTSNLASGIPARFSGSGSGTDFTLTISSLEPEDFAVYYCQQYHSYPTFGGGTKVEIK

>  <Kd [nM]>
0.56

$$$$
>  <Binder>
SA301a HC-T57D (antibody, name in Kabat numbering, V domains shown, IgG1 kappa) VH: QVQLQESGPGLVKPSQTLSLTCTVSGYSITSDYNSHWIRQPPGKGLEWIGYIHYSGSDNYNPSLKSRVTISRDTSKNQFSLKLSSVTAADTAVYYCARNYGSIYVNYFDYWGQGTLVTVSS VL: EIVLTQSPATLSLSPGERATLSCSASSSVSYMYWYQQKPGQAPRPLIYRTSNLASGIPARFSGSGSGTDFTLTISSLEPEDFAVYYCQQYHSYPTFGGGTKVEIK

>  <Kd [nM]>
1.73

$$$$
